system: hu-mPRα (Homo sapiens, UniProt Q86WK9)
Sequence (Q86WK9 1-346): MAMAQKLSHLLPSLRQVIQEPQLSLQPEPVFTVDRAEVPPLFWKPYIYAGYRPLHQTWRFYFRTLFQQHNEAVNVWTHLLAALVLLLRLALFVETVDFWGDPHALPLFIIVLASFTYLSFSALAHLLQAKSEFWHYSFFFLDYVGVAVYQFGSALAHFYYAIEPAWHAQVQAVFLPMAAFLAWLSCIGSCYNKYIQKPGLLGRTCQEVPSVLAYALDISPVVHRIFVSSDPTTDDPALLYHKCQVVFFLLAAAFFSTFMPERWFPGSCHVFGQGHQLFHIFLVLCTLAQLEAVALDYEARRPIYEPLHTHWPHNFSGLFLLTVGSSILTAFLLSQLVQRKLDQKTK
test-readout: IC50 (µM)
Report the figure in µM without appending any unit label.

>  <molecule>
C[C@@H]1C=C2CC(=O)CC[C@]2(C)[C@H]2CC[C@]3(C)[C@@H](O)CC[C@H]3[C@H]12 [17β-Hydroxy-7α-methylandrost-5-en-3-one]

>  <system>
hu-mPRα (Homo sapiens, UniProt Q86WK9)

>  <observed>
2.88

$$$$
>  <molecule>
C[C@]12CCC(=O)C=C1CC[C@@H]1[C@@H]2CC[C@@]2(C)[C@H]1CC[C@]2(O)C(=O)CO [Cortexolone (11-deoxycortisol), 11-deoxycortisol]

>  <system>
hu-mPRα (Homo sapiens, UniProt Q86WK9)

>  <observed>
4.85

$$$$
>  <molecule>
CC(=O)[C@H]1CC[C@H]2[C@@H]3C=CC4=CC(=O)CC[C@]4(C)[C@H]3CC[C@]12C

>  <system>
hu-mPRα (Homo sapiens, UniProt Q86WK9)

>  <observed>
0.0884

$$$$
>  <molecule>
CC(=O)[C@H]1CC[C@H]2[C@@H]3CC[C@H]4C[C@H](O)CC[C@]4(C)[C@H]3CC[C@]12C [3α-Hydroxy-5α-pregnan-20-one]

>  <system>
hu-mPRα (Homo sapiens, UniProt Q86WK9)

>  <observed>
1.15

$$$$

Qu. Determine its reported IC50: CC(=O)[C@H]1CC[C@H]2[C@@H]3CCC4=CC(=O)C=C[C@]4(C)[C@H]3CC[C@]12C
Ans. 0.0935

Qu. Look up IC50 of CC(=O)[C@H]1CC[C@H]2[C@@H]3CCC4=CC(=O)CC[C@]4(C)[C@H]3CC[C@]12C and report it.
Ans. 0.0874

Reference for the values: paper PMC2858063
